For each record, write down the corresponding MIC99.
Test system: Mycobacterium tuberculosis
Measurement Protocol: microbe, parasite or virus in culture
Applied Conditions: H37Rv, 264 h
Description: Antibacterial activity against wild type Mycobacterium tuberculosis H37Rv assessed as inhibition of bacterial growth incubated for 11 days
Please respond with the number in µM and leave the unit unwritten.

Prompt: What does the record list as MIC99 for COc1c(N2C[C@@H]3CCCN[C@@H]3C2)c(F)cc2c(=O)c(C(=O)O)cn(C3CC3)c12 [MOXIFLOXACIN] ?
Response: 0.19

Prompt: Looking for the measured MIC99 of C[C@@H]1CN2c3c(cc4c(-n5cncn5)noc4c3F)CC3(C(=O)NC(=O)NC3=O)[C@H]2[C@H](C)O1 , can you help?
Response: 3.8

Prompt: Reported MIC99 for C[C@@H]1CN2c3c(cc4c(N5C(=O)OC[C@@H]5C)noc4c3F)CC3(C(=O)NC(=O)NC3=O)[C@H]2[C@H](C)O1 [ZOLIFLODACIN] : what is it?
Response: 44

Prompt: Bench note: what MIC99 did C[C@@H]1CN2c3c(cc4c(N5C[C@@H](O)[C@H](O)C5)noc4c3F)CC3(C(=O)NC(=O)NC3=O)[C@H]2[C@H](C)O1 show?
Response: 6.75
